Method Description: total protein half-life in vivo (active degradation + dilution); higher = more stable protein
Condition Info: E. coli NCM3722 delta-hslV; growth: N-lim chemostat; doubling time 6 h
Measured Attribute: total protein half-life in vivo (h)
Express the result in h but write the number alone.

Input: Consider the sequence MSNPILSWRRVRALCVKETRQIVRDPSSWLIAVVIPLLLLFIFGYGINLDSSKLRVGILLEQRSEAALDFTHTMTGSPYIDATISDNRQELIAKMQAGKIRGLVVIPVDFAEQMERANATAPIQVITDGSEPNTANFVQGYVEGIWQIWQMQRAEDNGQTFEPLIDVQTRYWFNPAAISQHFIIPGAVTIIMTVIGAILTSLVVAREWERGTMEALLSTEITRTELLLCKLIPYYFLGMLAMLLCMLVSVFILGVPYRGSLLILFFISSLFLLSTLGMGLLISTITRNQFNAAQVALNAAFLPSIMLSGFIFQIDSMPAVIRAVTYIIPARYFVSTLQSLFLAGNIPVVLVVNVLFLIASAVMFIGLTWLKTKRRLD [P0AFQ2] . State its measured total protein half-life in vivo.
Output: 6.1

---

Method Description: total protein half-life in vivo (active degradation + dilution); higher = more stable protein
Condition Info: E. coli NCM3722 delta-clpP delta-lon delta-hslV; growth: N-lim chemostat; doubling time 6 h
Measured Attribute: total protein half-life in vivo (h)
Express the result in h but write the number alone.

Worked examples follow.
{"columns": ["Residue Sequence", "Result"],
 "data": [
  ["MTTKRKPYVRPMTSTWWKKLPFYRFYMLREGTAVPAVWFSIELIFGLFALKNGPEAWAGFVDFLQNPVIVIINLITLAAALLHTKTWFELAPKAANIIVKDEKMGPEPIIKSLWAVTVVATIVILFVALYW [P0A8Q0]", 5.7],
  ["MQTEHVILLNAQGVPTGTLEKYAAHTADTRLHLAFSSWLFNAKGQLLVTRRALSKKAWPGVWTNSVCGHPQLGESNEDAVIRRCRYELGVEITPPESIYPDFRYRATDPSGIVENEVCPVFAARTTSALQINDDEVMDYQWCDLADVLHGIDATPWAFSPWMVMQATNREARKRLSAFTQLK", 4.63],
  ["MYPVDLHMHTVASTHAYSTLSDYIAQAKQKGIKLFAITDHGPDMEDAPHHWHFINMRIWPRVVDGVGILRGIEANIKNVDGEIDCSGKMFDSLDLIIAGFHEPVFAPHDKATNTQAMIATIASGNVHIISHPGNPKYEIDVKAVAEAAAKHQVALEINNSSFLHSRKGSEDNCREVAAAVRDAGGWVALGSDSHTAFTMGEFEECLKILDAVDFPPERILNVSPRRLLNFLESRGMAPIAEFADL", 4.97]
]}

Next sequence, please.
Input: Consider the sequence MTQGAVKTTGKRSRAVSAKKKAILSAALDTFSQFGFHGTRLEQIAELAGVSKTNLLYYFPSKEALYIAVLRQILDIWLAPLKAFREDFAPLAAIKEYIRLKLEVSRDYPQASRLFCMEMLAGAPLLMDELTGDLKALIDEKSALIAGWVKSGKLAPIDPQHLIFMIWASTQHYADFAPQVEAVTGATLRDEVFFNQTVENVQRIIIEGIRPR [P0ACU2] . State its measured total protein half-life in vivo.
Output: 6.17

---

Method Description: total protein half-life in vivo (active degradation + dilution); higher = more stable protein
Condition Info: wild type E. coli NCM3722; growth: N-lim chemostat; doubling time 12 h
Measured Attribute: total protein half-life in vivo (h)
Express the result in h but write the number alone.

Input: Consider the sequence MTTQTVSGRRYFTKAWLMEQKSLIALLVLIAIVSTLSPNFFTINNLFNILQQTSVNAIMAVGMTLVILTSGIDLSVGSLLALTGAVAASIVGIEVNALVAVAAALALGAAIGAVTGVIVAKGRVQAFIATLVMMLLLRGVTMVYTNGSPVNTGFTENADLFGWFGIGRPLGVPTPVWIMGIVFLAAWYMLHHTRLGRYIYALGGNEAATRLSGINVNKIKIIVYSLCGLLASLAGIIEVARLSSAQPTAGTGYELDAIAAVVLGGTSLAGGKGRIVGTLIGALILGFLNNGLNLLGVSSYYQMIVKAVVILLAVLVDNKKQ [P0AGI1] . State its measured total protein half-life in vivo.
Output: 10.5
